TARGET_DESC: human IL-17A (human, UniProt Q16552 24-155)
Sequence (Q16552 24-155 limits assumed): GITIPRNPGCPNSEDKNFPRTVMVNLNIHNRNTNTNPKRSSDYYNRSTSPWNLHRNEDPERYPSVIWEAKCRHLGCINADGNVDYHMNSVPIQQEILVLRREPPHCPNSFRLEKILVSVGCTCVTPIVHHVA
ASSAY_SUMMARY: cell-based or functional assay
PROPERTY: IC50 (nM), NIH3T3 in vitro functional assay described in Example 1 (IL-6 production)

[[record]]
binder = "REMD 155.1 (antibody, human IgG4 S228P, kappa, V domains shown, Humanized antibody derived from 23A4D8; also called IgG 2 (H1/L2); H1 + L2) VH: QVQLVQSGAEVKKPGASVKVSCKASGFTFTDYYMNWVRQAPGQGLEWMGDINPKNGGTIFNQNFRGRVTMTRDTSISTAYMELSRLRSDDTAVYYCARSILTGPFYFDYWGQGTLVTVSS VL: DIVMTQSPDSLAVSLGERATINCKASQSVSFAGTGLMHWYQQKPGQQPKLLIYRASNLEAGVPDRFSGSGSGTDFTLTISSLQAEDVAVYYCQQTMEYPTFGGGTKLEIKR"
numeric_value = 0.995

[[record]]
binder = "REMD 155.2 (antibody, human IgG4 S228P, kappa, V domains shown, Humanized antibody derived from 23A4D8; also called IgG 4 (H1/L4); H1 + L4) VH: QVQLVQSGAEVKKPGASVKVSCKASGFTFTDYYMNWVRQAPGQGLEWMGDINPKNGGTIFNQNFRGRVTMTRDTSISTAYMELSRLRSDDTAVYYCARSILTGPFYFDYWGQGTLVTVSS VL: DIVLTQSPDSLAVSLGERATINCKASQSVSFAGTGLMHWYQQKPGQQPKLLIYRASNLEAGVPDRFSGSGSGTDFTLTISSVQAEDVAVYYCQQTMEYPTFGGGTKLEIKR"
numeric_value = 0.975

[[record]]
binder = "REMD 155 (antibody, human IgG4 S228P, kappa, V domains shown, Humanized antibody derived from 23A4D8; also called IgG 1 (H1/L1); H1 + L1) VH: QVQLVQSGAEVKKPGASVKVSCKASGFTFTDYYMNWVRQAPGQGLEWMGDINPKNGGTIFNQNFRGRVTMTRDTSISTAYMELSRLRSDDTAVYYCARSILTGPFYFDYWGQGTLVTVSS VL: DIVMTQSPDSLAVSLGERATINCKASQSVSFAGTGLMHWYQQKPGQPPKLLIYRASNLEAGVPDRFSGSGSGTDFTLTISSLQAEDVAVYYCQQTMEYPTFGGGTKLEIKR"
numeric_value = 0.88

[[record]]
binder = "23A4D8 (antibody, mouse IgG2a, V domains shown, also called Murine 23A4D8; parental) VH: EVQLQQSGPELVKPGASVKISCKASGFTFTDYYMNWMKQSHGKSLEWIGDINPKNGGTIFNQNFRGKATLTVDKSSSTAYMELRSLTSEDSAVYYCARSILTGPFYFDYWGQGTTLTVSS VL: DIVLTQSPASLAVSLGQRAIISCKASQSVSFAGTGLMHWYQQKSGQQPKLLISRASNLEAGVPTRFSGSGSRTDFTLNIHPVEEDDAATYYCQQTMEYPTFGGGTKLEIK"
numeric_value = 0.703

